- target_under_test: FABP4 (Homo sapiens)
- Sequence (P15090 whole entry, species assumed): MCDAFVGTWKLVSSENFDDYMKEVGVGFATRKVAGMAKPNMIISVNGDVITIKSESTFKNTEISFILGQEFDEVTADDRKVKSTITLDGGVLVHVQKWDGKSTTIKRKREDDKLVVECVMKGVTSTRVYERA
- measurement_description: TdF (Temperature Dependence Fluorescence) assay, thermal shift, FABP4
- Format: binding
- Text: TdF (Temperature Dependence Fluorescence) Assay for FABP3 and FABP4 The TdF assay was mainly conducted in the 96-well based CHROMO-4 real time fluorescence plate reader (BioRad). The Sypro Orange (Sigma-Aldrich), environmentally sensitive fluorescence dye, was used to monitor the protein folding-unfolding transition. […] In brief, the binding constant of the ligand at the Tm is expressed as below: […]
measured_attribute: FABP4 TdF Kd

Use these answered entries as a reference point.
[[record]]
compound = "O=C(NCC1(c2ccccc2Cl)CC1)c1ccccc1OCc1[nH]c2nc(-c3ccccc3)nn2c(=O)c1Cl [24-8]"
result = "B (0.5 ≦ B < 0.001 μM)"

[[record]]
compound = "O=C(O)c1c(Cl)cccc1OCc1cc(=O)n2nc(-c3ccccc3)nc2[nH]1 [47-1]"
result = "B (0.5 ≦ B < 0.001 μM)"

[[record]]
compound = "Cc1c(F)cccc1OCc1cc(=O)n2nc(-c3ccccc3)nc2[nH]1 [1-39]"
result = "B (0.5 ≦ B < 0.001 μM)"

[[record]]
compound = "O=c1c(Br)c(COc2cccc(Cl)c2C2CC2)[nH]c2nc(-c3ccccc3)nn12 [23-1]"
result = "B (0.5 ≦ B < 0.001 μM)"


Lab note: measured FABP4 TdF Kd of O=C(NCC1(O)CCOCC1)C1(OCc2cc(=O)n3nc(-c4ccccc4)nc3[nH]2)CCCCC1 [48-61] was B (0.5 ≦ B < 0.001 μM)

Lab note: measured FABP4 TdF Kd of COc1cccc(C2(NC(=O)C3(OCc4cc(=O)n5nc(-c6ccccc6)nc5[nH]4)CCCCC3)CC2)c1 [48-71] was B (0.5 ≦ B < 0.001 μM)

Lab note: measured FABP4 TdF Kd of O=C(NCC1(c2ccc(Cl)cc2)CC1)C1CCCCC1OCc1cc(=O)n2nc(-c3ccccc3)nc2[nH]1 (centres unmarked) [48-76] was B (0.5 ≦ B < 0.001 μM)

Lab note: measured FABP4 TdF Kd of O=C(NCCC1CC1)c1ccccc1OCc1cc(=O)n2nc(-c3ccccc3)nc2[nH]1 [47-61] was B (0.5 ≦ B < 0.001 μM)

Lab note: measured FABP4 TdF Kd of O=c1cc(COc2cccc(Cl)c2C2CCC2)[nH]c2nc(-c3ccccc3)nn12 [26-3] was B (0.5 ≦ B < 0.001 μM)

Lab note: measured FABP4 TdF Kd of Cc1cc(OCc2cc(=O)n3nc(-c4ccccc4)nc3[nH]2)ccc1C(C)C [1-70] was B (0.5 ≦ B < 0.001 μM)

Lab note: measured FABP4 TdF Kd of O=C(NCC1(O)CCCCC1)c1c(Cl)cccc1OCc1cc(=O)n2nc(-c3ccccc3)nc2[nH]1 [47-13] was B (0.5 ≦ B < 0.001 μM)

Lab note: measured FABP4 TdF Kd of O=c1cc(COC2CCCCC2)[nH]c2nc(-c3ccccc3)nn12 [1-21] was B (0.5 ≦ B < 0.001 μM)

Lab note: measured FABP4 TdF Kd of CN(C(=O)c1ccccc1OCc1cc(=O)n2nc(-c3ccccc3)nc2[nH]1)C1CCCCC1 [47-62] was B (0.5 ≦ B < 0.001 μM)

Lab note: measured FABP4 TdF Kd of Cc1c(Cl)cccc1OCc1[nH]c2nc(-c3ccccc3)nn2c(=O)c1Cl [3-1] was B (0.5 ≦ B < 0.001 μM)

Lab note: measured FABP4 TdF Kd of CN(CCC1CC1)C(=O)C1(OCc2cc(=O)n3nc(-c4ccccc4)nc3[nH]2)CCCCC1 [48-77] was B (0.5 ≦ B < 0.001 μM)

Lab note: measured FABP4 TdF Kd of O=C(NCC1CC1)C1(OCc2cc(=O)n3nc(-c4ccccc4)nc3[nH]2)CCCCC1 [48-16] was B (0.5 ≦ B < 0.001 μM)

Lab note: measured FABP4 TdF Kd of Cn1ccc(NC(=O)c2c(Cl)cccc2OCc2cc(=O)n3nc(-c4ccccc4)nc3[nH]2)n1 [47-40] was B (0.5 ≦ B < 0.001 μM)
